Target: hsSUMO2-MBP fusion protein
VALUE KIND: cleavage of the SUMO fusion protein

* bdSENP1^Muti (protein) PFVPLTDEDEDNVRHALGGRKKSETLSVHEASHIVITREILQCLNDKEWLNDEVINLYLELLKERELREPNKFLKCHFFNTFFYKKLINGGYDYKSVREWTTRRKLGYNLIDCDKIFVPIHKDVHWCLAVINIKEKKFQYLDSLGYMDMKALRILAKYLVDEVKDKSGKQIDVHAWKQEGVQNLPLQENGWDCGMFMLKYIDFYSRDMELVFGQKHMSYFRRRTAKEILDLKAG | resistant
* bdSENP1^MutK (protein) PFVPLTDEDEDNVRHALGGRKVSETLSVHEASQIVITREILQCLNDKEWLNDEVINLYLELLKERELREPNKFLKCHFFNTFFYKKLINGGYDYKSVRVWTTGRKLGYNLIDCDKIFVPIHKDVHWCLAVINIKEKKFQYLDSLGYMDMKALRILAKYLVDEVKDKSGKQIDVHAWKQEGVQNLPLQENGWDCGMFMLKYIDFYSRDMELVFGQKHMSYFRRRTAKEILDLKAG | resistant

Ref: patent US20210261937
